assay: A549 cell viability effects, profiling panel, calcein-AM fluorescence, 48 h, basal (AID 1162); details: higher = more signal; also: test concentration not given here
Each entry belongs to exactly one class, chosen by where its z-score falls: low end = under -0.3, middle = from -0.3 up to 0.4, high end = 0.4 and over

{"smiles_data": "CO[C@H]1COC(=O)[C@@H](OCc2ccccc2)C=C[C@H](C)[C@@H](OC)COC(=O)[C@H](OCc2ccccc2)C=C[C@@H]1C", "class_assignment": "high end"}
{"smiles_data": "O=C1C[C@@](C(=O)NC2CC2)(c2ccc([N+](=O)[O-])cc2)[C@@H](c2ccc(CO)cc2I)N1CC12CC3CC(CC(C3)C1)C2", "class_assignment": "low end"}
{"smiles_data": "COCCOC(=O)N1C(=O)[C@@]2(c3cc(C#CCNC(N)=O)ccc31)[C@H](c1ccc(OCCO)cc1)N1[C@H](c3ccccc3)[C@H](c3ccccc3)OC(=O)[C@H]1[C@@H]2C(=O)Nc1nc2ccccc2s1", "class_assignment": "high end"}
{"smiles_data": "CC(C)NC(=O)[C@@]1(Cc2ccccc2I)c2ccccc2C(=O)N(C2CCCCC2)[C@H]1c1ccc(CO)cc1", "class_assignment": "middle"}
{"smiles_data": "CCCC=C(CCC)[C@@H](NS(=O)(=O)c1cccc(C(F)(F)F)c1)c1ccc(C(=O)OC)cc1", "class_assignment": "low end"}
{"smiles_data": "COc1cc2c(cc1OC)CN(C(=O)[C@@H]1[C@H]3C(=O)O[C@H](c4ccccc4)[C@H](c4ccccc4)N3[C@H](c3ccccc3OCCO)[C@@]13C(=O)Nc1ccccc13)CC2", "class_assignment": "middle"}
{"smiles_data": "CO[C@H]1COC(=O)CC=C[C@H](C)COC(=O)[C@@H](OCc2ccccc2)C=C[C@@H]1C", "class_assignment": "low end"}
{"smiles_data": "CO[C@H]1COC(=O)[C@H](CCSC)NC(=O)CC=C[C@@H](C)COC(=O)[C@@H](OCc2ccccc2)C=C[C@@H]1C", "class_assignment": "middle"}
{"smiles_data": "C=CC[C@@]1(C(=O)N2CCOCC2)N=C(c2ccc(OCCCO)cc2)O[C@@H]1c1ccccc1", "class_assignment": "high end"}
{"smiles_data": "O=C(O)[C@@H]1Cc2c([nH]c3ccccc23)[C@@H](c2ccccc2)N1", "class_assignment": "middle"}
{"smiles_data": "CC1=C([C@H](O)CCc2ccccc2)[C@H](CO)[C@@H]2C(=O)N(Cc3ccccc3)C(=O)[C@@H]2C1", "class_assignment": "middle"}
{"smiles_data": "O=C1O[C@H](c2ccccc2)[C@H](c2ccccc2)N2[C@H]1[C@@H](C(=O)Nc1nc3ccccc3s1)[C@]1(C(=O)Nc3ccc(C#CC4(O)CCCCCC4)cc31)[C@H]2c1ccc(O)cc1", "class_assignment": "middle"}

From: PubChem BioAssay
